Reported nuclei count is given for each of the following compounds.
Tested on: U2OS
Assay: nuclei count (viability) relative to DMSO (% of DMSO); higher = more viable cells
Conditions: 10 µM; 24 h
Counter-ions that a name gives are not always drawn. The full ranking holds about 3,200 compounds; the median of “nuclei count (viability) relative to DMSO” is about 99, and the lowest 2% start at about 16. The sample holds the lowest values, similar compounds and a random draw of the others, so the mix is not that of the screen.
Number only, please.

# compound, experimental_endpoint, numeric_value
measured = [
    ("CN1CCN(C(=O)c2nc3ccc(Cl)cc3[nH]2)CC1", "nuclei count", 88.3),
    ("CC(=O)NNC(=O)N1Cc2ccccc2Oc2ccc(Cl)cc21", "nuclei count", 94.3),
    ("CCOC(=O)Nc1cc(-c2ccc(C)c(NS(C)(=O)=O)c2)nn2c(C)nnc12 [Bromosporine]", "nuclei count", 74.5),
    ("CN1CCCN(C(=O)c2cccc(-c3ccc(/C=C4/C(=O)Nc5ccc(Cl)cc54)o3)c2)CC1", "nuclei count", 6.22),
    ("CNC(C)C1CCC(N)C(OC2C(N)CC(N)C(OC3OCC(C)(O)C(NC)C3O)C2O)O1 (stereo unspecified) [Gentamycin sulfate (Gentacycol)]", "nuclei count", 79.5),
]

Problem: Sample CCCC(=O)[O-].[Na+] [Sodium butyrate] — what was its nuclei count?
Result: 89.2
